Reference source for all entries: PubChem BioAssay (NCI)

System: CCRF-CEM leukemia
Experiment: NCI-60 one-dose screen, 48 h
Conditions: 10 µM unless noted
Procedure: Growth inhibition of the CCRF-CEM human tumor cell line is measured as a screen for anti-cancer activity. Cells are grown in 96 well plates and exposed to the test compound for 48 hours. Compounds are tested at a single concentration, which is 10^-5 M for most compounds. The reported endpoint is percent growth (GI% or GIPRCNT), where numbers from 0 - 100% represent growth inhibition, and numbers from -100% - 0 represent cell death. For example, a value of 40 represents 60% growth inhibition. […]
This is part of a sample that, as a whole, favours compounds with a hit. Of some 83,000 tested, about 20% had one in any assay. Active and inactive are the calls of the source. Rule for the calls: active = growth percent below 10; inactive = the rest.
Valid outcomes are listed here; reply with one: true for active, false for inactive

Please review the following examples before continuing.
>>> category_label("CCOc1nc(-c2ccccc2)cc2c(O)c(C(=O)N/N=C/c3ccccc3)[nH]c(=O)c12")
"false"
>>> category_label("CC1(C)COB(OCC(C)(C)COB2OCC(C)(C)CO2)OC1")
"false"
>>> category_label("CC1=C2[C@@H](CC1)[C@]1(C)O[C@@](C(C)C)(C[C@H]1OC(=O)[C@H](C)O)[C@H]2OC(=O)/C=C/c1ccccc1")
"false"

Consider the record given below.
Recorded test call requested for "COc1ccc(CN2c3ccccc3Sc3ccccc32)cc1F"
false

----------
system: CCRF-CEM leukemia; assay: NCI-60 one-dose screen, 48 h; settings: 10 µM unless noted
About 83,000 compounds went through this panel and 20% of them were active in at least one assay; those are over-represented in the sample as a whole. The source made the active and inactive calls. How the source made its calls: active means growth percent below 10; inactive means the rest.
Form entry, call: pick from Y (active), N (inactive)

>>> category_label("COC1=CC(c2ccc[nH]2)=N/C1=C\\c1[nH]c(C)c(C)c1CCC(=O)OCc1ccccc1")
"Y"
>>> category_label("CSc1nc2ccccc2cc1/C=C1/C=C(c2ccccc2)NC1=O")
"N"
>>> category_label("COC(=O)CC[C@@H]1O[C@@H](c2cccc(C(F)(F)F)c2)[C@@H](O)[C@H]1O")
"N"
>>> category_label("CN(/C(N)=N/N=C/c1c2ccccc2cc2ccccc12)C1CCCCC1")
"N"
>>> category_label("CCN(CC)CC(O)COc1c(Br)c(Br)c(Br)c2c1OC(C)(C)C2 (centres undefined)")
"N"

Give the logged outcome of this assay for the following compound: "Cc1c2cnccc2c(C)c2c1c1cc(C#N)ccc1n2C"
Y

Quick one: Cc1ccc(C2=Nc3c(N)ncnc3NC(c3cccc(Nc4ccnc5cc(C(F)(F)F)ccc45)c3)C2)cc1 (centres undefined)
Y

----------
tested on: HCC-2998 colon; assay: NCI-60 one-dose screen, 48 h; settings: 10 µM unless noted
This is part of a sample that, as a whole, favours compounds with a hit. Of some 83,000 tested, about 20% had one in any assay. Active and inactive are the calls of the source. The calls were made as follows: active = growth percent below 10; inactive = the rest.
Select the correct class. Options are active, inactive and nothing else.

>>> category_label("O=S(=O)(NCCCNc1nccc(-c2c(-c3ccc(F)c(O)c3)nc3sccn23)n1)c1ccccc1")
"inactive"
>>> category_label("CC(=O)Oc1ccc(/C(=C(\\C)c2ccc(Cl)cc2)c2ccc(OCCN3CCCCC3)cc2)cc1")
"active"
>>> category_label("CCOC(=O)n1ccn(C)c1=S")
"inactive"
>>> category_label("CCOC(=O)C#Cc1c(C(=O)OCC)nnn1Cc1ccc([N+](=O)[O-])cc1")
"inactive"
>>> category_label("O=C1Nc2ccccc2/C1=C/c1cccn1CCCCn1c2ccccc2c(=O)c2ccccc21")
"inactive"

Look up the recorded call for "Cc1cc(=O)n(C(=O)Nc2ccccc2Cl)c2cc(O)ccc12" in this test.
inactive

Do the same for "Clc1cc(Cl)c(Cl)c(-c2nnc(SCc3ccncc3Br)o2)c1" please
inactive

Okay, and "CCNCCNc1cc(-c2ccc(C(F)(F)F)cc2)c(C#N)c2nc3ccccc3n12" ?
active

Try this molecule next: "CC(C)c1ccc(Cc2cnc(NC(=O)c3cc(Br)cs3)s2)cc1"
inactive

Repeat with "CC(C)COc1nc2c(c(=O)n(C)c(=O)n2C)n1C"
inactive
